Target: UniProtKB O00763
Sequence (O00763 129-2458): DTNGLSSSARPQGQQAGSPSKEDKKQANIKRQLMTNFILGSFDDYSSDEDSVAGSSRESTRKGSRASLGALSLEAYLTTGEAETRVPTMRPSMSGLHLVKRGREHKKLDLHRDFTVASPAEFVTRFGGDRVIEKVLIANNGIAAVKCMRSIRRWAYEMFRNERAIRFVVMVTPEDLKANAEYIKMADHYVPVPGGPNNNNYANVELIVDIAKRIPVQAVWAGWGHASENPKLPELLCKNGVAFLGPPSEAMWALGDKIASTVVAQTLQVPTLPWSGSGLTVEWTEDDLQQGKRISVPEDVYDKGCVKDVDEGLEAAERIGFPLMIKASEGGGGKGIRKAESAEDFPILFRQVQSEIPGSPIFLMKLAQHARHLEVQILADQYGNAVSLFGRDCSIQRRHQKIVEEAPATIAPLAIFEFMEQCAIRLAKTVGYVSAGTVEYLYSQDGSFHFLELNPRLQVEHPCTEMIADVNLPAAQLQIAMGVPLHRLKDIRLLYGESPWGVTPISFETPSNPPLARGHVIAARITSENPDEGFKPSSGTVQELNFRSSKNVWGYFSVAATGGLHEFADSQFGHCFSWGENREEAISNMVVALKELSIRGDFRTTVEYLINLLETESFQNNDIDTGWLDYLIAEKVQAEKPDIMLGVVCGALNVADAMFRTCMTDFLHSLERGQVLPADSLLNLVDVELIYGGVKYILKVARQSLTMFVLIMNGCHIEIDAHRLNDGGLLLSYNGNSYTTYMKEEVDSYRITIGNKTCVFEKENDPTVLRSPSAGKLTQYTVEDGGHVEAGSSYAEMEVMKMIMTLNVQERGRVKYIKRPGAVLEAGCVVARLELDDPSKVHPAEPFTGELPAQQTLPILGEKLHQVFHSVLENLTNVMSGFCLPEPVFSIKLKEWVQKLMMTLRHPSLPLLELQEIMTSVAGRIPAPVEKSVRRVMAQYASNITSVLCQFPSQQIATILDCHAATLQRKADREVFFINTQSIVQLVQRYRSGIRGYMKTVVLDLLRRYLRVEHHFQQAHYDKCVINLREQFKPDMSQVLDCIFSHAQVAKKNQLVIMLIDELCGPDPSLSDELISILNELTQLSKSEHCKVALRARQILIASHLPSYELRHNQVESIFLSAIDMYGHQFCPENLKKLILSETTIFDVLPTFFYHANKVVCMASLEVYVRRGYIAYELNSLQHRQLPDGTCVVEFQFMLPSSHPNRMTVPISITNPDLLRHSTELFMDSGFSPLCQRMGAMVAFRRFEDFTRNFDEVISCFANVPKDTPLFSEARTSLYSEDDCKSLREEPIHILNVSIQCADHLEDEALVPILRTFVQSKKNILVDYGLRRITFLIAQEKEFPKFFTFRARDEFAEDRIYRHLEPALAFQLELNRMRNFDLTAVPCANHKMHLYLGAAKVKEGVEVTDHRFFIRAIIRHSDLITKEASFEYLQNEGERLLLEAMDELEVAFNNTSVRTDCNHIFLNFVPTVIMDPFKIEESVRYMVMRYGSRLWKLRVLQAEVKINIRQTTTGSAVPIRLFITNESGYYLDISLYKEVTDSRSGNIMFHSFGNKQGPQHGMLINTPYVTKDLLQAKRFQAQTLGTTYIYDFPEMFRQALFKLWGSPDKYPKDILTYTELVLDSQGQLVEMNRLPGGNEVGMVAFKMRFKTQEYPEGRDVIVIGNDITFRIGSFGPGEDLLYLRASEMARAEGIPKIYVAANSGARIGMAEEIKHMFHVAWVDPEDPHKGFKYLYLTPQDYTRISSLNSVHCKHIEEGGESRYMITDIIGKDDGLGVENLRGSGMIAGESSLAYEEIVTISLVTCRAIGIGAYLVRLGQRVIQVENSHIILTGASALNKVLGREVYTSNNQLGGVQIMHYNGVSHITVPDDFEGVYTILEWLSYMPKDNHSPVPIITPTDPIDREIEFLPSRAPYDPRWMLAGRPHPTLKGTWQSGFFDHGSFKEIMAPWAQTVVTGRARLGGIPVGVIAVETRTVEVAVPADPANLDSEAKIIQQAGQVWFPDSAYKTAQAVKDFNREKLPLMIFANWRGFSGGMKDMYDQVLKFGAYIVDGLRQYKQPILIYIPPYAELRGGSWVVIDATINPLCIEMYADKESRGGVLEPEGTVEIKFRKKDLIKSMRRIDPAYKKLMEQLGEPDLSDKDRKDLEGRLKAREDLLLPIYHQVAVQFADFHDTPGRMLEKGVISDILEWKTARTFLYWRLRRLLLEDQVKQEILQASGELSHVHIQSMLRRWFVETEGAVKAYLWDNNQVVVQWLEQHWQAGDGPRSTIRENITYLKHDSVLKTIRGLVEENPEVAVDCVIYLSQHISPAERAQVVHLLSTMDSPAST
Experiment: ACC2 assay (spectrophotometric 384 well assay, NADH-linked coupled lactate dehydrogenase/pyruvate kinase)
Type: biochemical
Conditions: hACC2 construct lacking 128 N-terminal amino acids; 25° C., 340 nm, 15 minutes
Description: Spectrophotometric 384 Well Assay Malonyl CoA formation by acetyl CoA carboxylases is stoichometrically linked to the consumption of ATP. ACC2 activity is measured in a NADH-linked kinetic method measuring ADP generated during the ACC reaction using a coupled lactate dehydrogenase/pyruvate kinase reaction. For biological testing, a human ACC2 construct which lacks the 128 amino acids at the N-terminus for increased solubility (nt 385-6966 in Genbank entry AJ575592) is cloned. […]
So basically, if IC50 comes in under 200 nM it's 1 (yes), and if it's 200 nM or more it's 0 (no).

Is IC50 of C[C@H](NC(=O)C1CC1)c1ccc(OC2CN(c3ccc(OCC4CC4)cc3)C2)cc1 strictly below 200 nM?
0 (no)
